Catalogue of molecules with associated In vitro relative activity, primary evaluation Gn-II (6)
# Tested on: Ent. cloacae (3), Pr. vulgaris (1), Pr. morganii (1), S. marcescen (1)
# procedureDetails: In vitro MIC, serial two-fold agar dilution, primary evaluation Gn-II (Ent. cloacae, Pr. vulgaris, Pr. morganii, S. marcescens)
# Format: cell-based
# testContext: CBPC = 100%; geometric mean of MICs; Mueller-Hinton agar
testReadout: In vitro relative activity, primary evaluation Gn-II (6)

# molecule, systemName, endpointValue
rows = [
    ("O=C([O-])C1=C(C[n+]2cccc(C(=O)O)c2)CSC2C(NC(=O)[C@H](NC(=O)c3cnc4cccnc4c3O)c3ccc(O)c(O)c3)C(=O)N12 (stereo partly drawn)", "Ent. cloacae (3), Pr. vulgaris (1), Pr. morganii (1), S. marcescen (1)", "14%"),
    ("O=C([O-])C1=C(C[n+]2cccc(C(=O)O)c2)CSC2C(NC(=O)[C@H](NC(=O)c3cnc4cccnc4c3O)c3ccsc3)C(=O)N12 (stereo partly drawn)", "Ent. cloacae (3), Pr. vulgaris (1), Pr. morganii (1), S. marcescen (1)", "10%"),
    ("O=C([O-])C1=C(C[n+]2cccc(S(=O)(=O)O)c2)CSC2C(NC(=O)[C@H](NC(=O)c3cnc4cccnc4c3O)c3ccccc3)C(=O)N12 (stereo partly drawn)", "Ent. cloacae (3), Pr. vulgaris (1), Pr. morganii (1), S. marcescen (1)", "13%"),
]
